Where do the numbers come from? From BindingDB's records for doi:10.7270/Q28G8J4C.

Subject of test: POsterior Segregation (Caenorhabditis elegans, UniProt G5EF15)
Sequence (G5EF15 whole entry): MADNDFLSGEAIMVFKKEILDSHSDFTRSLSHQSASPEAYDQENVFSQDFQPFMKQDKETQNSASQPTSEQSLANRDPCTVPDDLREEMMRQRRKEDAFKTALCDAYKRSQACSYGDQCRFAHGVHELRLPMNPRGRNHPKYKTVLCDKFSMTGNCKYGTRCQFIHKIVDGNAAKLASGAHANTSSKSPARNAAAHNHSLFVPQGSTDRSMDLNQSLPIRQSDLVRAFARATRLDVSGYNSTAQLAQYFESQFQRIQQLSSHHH
Test summary: inhibitors of POS-1/mex-3 RNA binding, dose response, biochemical, fluorescence polarization (AID 1964)
Observed property: EC50

Q: Look at this compound and give its reported EC50. Oc1ccc(CN=Nc2ncnc3nc[nH]c23)cc1 [SMR000320358]
A: > 300 µM

Q: Item: O=C1c2cccc3cccc(c23)C(=O)C1[N+](=O)[O-] [2-nitro-3-oxidanyl-phenalen-1-one]
A: 12.6 µM

Q: Item: Cc1ccc(C(=O)Cc2nc3ccccc3oc2=O)cc1
A: > 300 µM

Q: Item: O=C(O)c1cc(-c2ccc(CN=Nc3ccc([N+](=O)[O-])cn3)o2)ccc1Cl
A: 31 µM

Q: Item: COc1ccc(N=CCC(=O)c2ccc(C)cc2)cc1OC [SMR000269732]
A: > 300 µM
